Tested on: M14 melanoma
Assay: NCI-60 one-dose screen, 48 h (100 = growth as untreated, 0 = no growth, -100 = all killed)
Run Conditions: 10 µM unless noted
About 83,000 compounds went through this panel and 20% of them were active in at least one assay; those are over-represented in the sample as a whole.
Give growth for every item shown.
One number for each entry, in %.

CC1(C)N=C(N)N=C(N)N1c1ccc(CNC(=O)Nc2ccc(S(=O)(=O)F)c(Cl)c2)c(Cl)c1	29.4
CC(N)Cc1ccc(O)cc1 (centres undefined)	99.9
O=C(CI)Nc1ccc(Br)cc1	14.1

Hello, I would appreciate it if you could give growth for each entry below.
1. CC[C@H](C)[C@H](NC(=O)Nc1ccccc1)C(=O)N(C)[C@H](C[C@@H](OC(C)=O)c1nc(C(=O)N[C@@H](Cc2ccccc2)C[C@H](C)C(=O)OC)cs1)C(C)C
2. CC12CC[C@H](O)C=C1/C(=N/O)CC1C2CCC2(C)C1CC[C@@H]2O (some centres undefined)
3. CC1CC=CCC12C(=O)NC(=S)NC2=O (centres undefined)
4. COc1cc(N(CCCl)CCCl)ccc1C=Nc1ccccc1C(=O)O
5. Nc1ccc([N+](=O)[O-])c2c1Oc1ccccc1O2

1: -7.55; 2: 95.7; 3: 114; 4: 98.2; 5: 106

What does the record list as growth for CC12CCC3C(CC=C4CC(O)CCC43C)C1C/C(=C\N1CCOCC1)C2=O (centres undefined) ?
112
